Attribute: IC50
Biological target: Plasma kallikrein (Homo sapiens)
Sequence (P03952 20-390 limits assumed): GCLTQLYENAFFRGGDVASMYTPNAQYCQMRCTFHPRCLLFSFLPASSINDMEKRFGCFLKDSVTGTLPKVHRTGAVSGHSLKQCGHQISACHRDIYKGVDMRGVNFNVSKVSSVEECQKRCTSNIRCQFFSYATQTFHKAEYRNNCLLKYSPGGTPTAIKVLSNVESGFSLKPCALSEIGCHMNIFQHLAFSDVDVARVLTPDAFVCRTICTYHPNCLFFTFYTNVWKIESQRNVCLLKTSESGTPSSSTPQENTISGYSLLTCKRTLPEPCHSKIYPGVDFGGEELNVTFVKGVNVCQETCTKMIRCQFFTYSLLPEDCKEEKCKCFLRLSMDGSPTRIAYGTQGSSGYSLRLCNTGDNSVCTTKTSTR
Sequence (P03952 391-638 limits assumed): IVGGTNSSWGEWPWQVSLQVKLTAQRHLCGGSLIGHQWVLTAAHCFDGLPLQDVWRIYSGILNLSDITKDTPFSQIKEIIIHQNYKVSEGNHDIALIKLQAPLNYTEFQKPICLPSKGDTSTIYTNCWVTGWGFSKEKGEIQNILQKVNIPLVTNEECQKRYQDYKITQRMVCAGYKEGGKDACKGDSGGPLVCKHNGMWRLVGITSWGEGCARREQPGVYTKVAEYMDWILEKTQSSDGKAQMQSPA
The response must be a number in nM with no trailing unit.

Known IC50 results, listed for orientation:
compound: COc1cccc(C(=O)O)c1OCCc1cc(-c2ccc3c(c2)[C@H](N)CO3)cc(C(C)C)c1
tested system: Plasma kallikrein (Homo sapiens)
value units: nM
val: 9
//
compound: CC(C)c1cc(-c2ccc3c(c2)[C@H](N)CO3)cc(C(O)CN2CCc3cccc(C(=O)O)c32)c1 (mixture of isomers)
tested system: Plasma kallikrein (Homo sapiens)
value units: nM
val: 2
//
compound: CC(C)c1cc(-c2ccc3c(c2)[C@H](N)CO3)cc(C(O)Cn2ccc3cccc(C(=O)O)c32)c1 (mixture of isomers)
tested system: Plasma kallikrein (Homo sapiens)
value units: nM
val: 16
//
compound: CC(C)c1cc(-c2ccc3c(c2)[C@H](N)CO3)cc([C@@H]2CNc3cccc(CC(=O)O)c3O2)c1
tested system: Plasma kallikrein (Homo sapiens)
value units: nM
val: 1

Form field IC50, entry NC1COc2ccc(-c3cccc(COc4ccccc4CC(=O)O)c3)cc21 (racemic) : 1300

Form field IC50, entry CC(C)(O)c1cc(COc2ccccc2CC(=O)O)cc(-c2ccc3c(c2)[C@H](N)CO3)c1 : 6

Form field IC50, entry CC(C)c1cc(CCN2CCc3cccc(C(=O)O)c32)cc(-c2ccc3c(c2)[C@H](N)CO3)c1 : 58

Form field IC50, entry CC(C)(O)c1cc(COc2ccccc2CC(=O)O)cc(-c2ccc3c(c2)CNCC3)c1 : 330

Origin of measurements: ChEMBL document CHEMBL4619774
